- Assay Explanation: Evaluation of conversion rate to active form in buffer solution (Experimental Example 1)
- Format: physicochemical
- Condition Set: pH6.5, 0 hr
Measurement Type: Production rate of Alvocidib (%)

>>> readout_number("C[C@H](N)C(=O)O[C@@H]1CN(C)CC[C@@H]1c1c(O)cc(O)c2c(=O)cc(-c3ccccc3Cl)oc12 [Comparative Example 7, reference compound]")
3.9
>>> readout_number("CC(C)[C@H](N)C(=O)O[C@@H]1CN(C)CC[C@@H]1c1c(O)cc(O)c2c(=O)cc(-c3ccccc3Cl)oc12 [Comparative Example 10, reference compound]")
2.3
>>> readout_number("CN1CC[C@H](c2c(O)cc(O)c3c(=O)cc(-c4ccccc4Cl)oc23)[C@H](OC(=O)CN)C1 [Comparative Example 8, reference compound]")
16.5
